System: DeltatarO mutant
Protocol: S. aureus survival, RN4220 and DeltatarO strains – OD600, teichoic acid synthesis inhibitors, primary screen (AID 463173)
Test context: S. aureus RN4220 wild type/DeltatarO growth, OD600, 18 h, stronger effect = lower value, screened at 18.75 µg/mL (by protocol)
About 4,300 (8.3%) of roughly 52,000 compounds were called active. The entries come from a sample that favours actives as a whole.
Class membership depends on survival alone; the intervals are bucket A (below 60%), bucket B (60% to below 90%), bucket C (90% or more)

Would you please look over these solved cases?
{"Molecule": "NC(=O)c1cc(S(=O)(=O)NCC2CCC(C(=O)Nc3cccc(Cl)c3)CC2)cs1 (stereo unspecified)", "Assayed target": "DeltatarO mutant", "Category label": "bucket B"}
{"Molecule": "Cc1ccccc1C(=O)Oc1c(Sc2ccccc2)c(C)nn1C(C)(C)C", "Assayed target": "DeltatarO mutant", "Category label": "bucket A"}
{"Molecule": "COc1ccc(Cn2nnnc2C(c2ccccc2)N2CCC(C)CC2)cc1 (stereo unspecified)", "Assayed target": "DeltatarO mutant", "Category label": "bucket B"}
{"Molecule": "CCOc1ccc(NC(=O)CSc2cn(CC(=O)N3CCOCC3)c3ccccc23)cc1", "Assayed target": "DeltatarO mutant", "Category label": "bucket C"}
{"Molecule": "Cc1nc2sc(C(=O)Nc3ccc(F)cc3)c(N)c2c(-c2ccc(Br)cc2)c1C(=O)Nc1ccc(Cl)cc1", "Assayed target": "DeltatarO mutant", "Category label": "bucket B"}
{"Molecule": "COc1cc(OC)cc(C(=O)Nc2ccc(-c3nc4cc(C(C)C)ccc4o3)cc2)c1", "Assayed target": "DeltatarO mutant", "Category label": "bucket A"}
{"Molecule": "CCOC(=O)c1sc(NC(=O)CSc2nnc(Cn3nnc4ccccc43)n2C)nc1C", "Assayed target": "DeltatarO mutant", "Category label": "bucket C"}
{"Molecule": "COc1cc(OC)cc(C(=O)Nc2ccc3oc(-c4ccccc4C)nc3c2)c1", "Assayed target": "DeltatarO mutant", "Category label": "bucket A"}
{"Molecule": "Cn1c(SCc2ccccc2F)nc2c([nH]c3ccccc32)c1=O", "Assayed target": "DeltatarO mutant", "Category label": "bucket C"}
{"Molecule": "Cc1cc2[nH]c(=O)c(=O)[nH]c2cc1S(=O)(=O)Nc1ccc(OC(F)(F)F)cc1", "Assayed target": "DeltatarO mutant", "Category label": "bucket B"}

Which bin should I file `COc1cc(OC)cc(C(=O)Nc2ccc3oc(-c4ccc(Cl)cc4)nc3c2)c1` under?
bucket A

Which bin should I file `COc1ccccc1C(=O)Oc1c(Sc2ccccc2)c(C)nn1C(C)(C)C` under?
bucket B

Which bin should I file Cc1cccc(NC(c2ccccc2C)c2ccc3ccc(C)nc3c2O)n1 (stereo unspecified) under?
bucket A

Which bin should I file `CC(C)Oc1cccc(C(=O)Nc2ccc(-c3nc4cc(Cl)cc(Cl)c4o3)cc2)c1` under?
bucket A

Which bin should I file `Cc1ccc2c(CC(=O)Nc3c(C(=O)c4ccc(C)c(F)c4)oc4ccccc34)coc2c1` under?
bucket C

Which bin should I file CCOC(=O)c1[nH]c2c(c1Cc1ccccc1)C(=O)CC(c1ccccc1)C2 (stereo unspecified) under?
bucket B

Which bin should I file `Cc1ccc(C(=O)Nc2ccc3oc(-c4ccccc4C)nc3c2)cc1` under?
bucket B

Which bin should I file `COc1cccc(C(=O)Nc2ccc3oc(-c4ccc5ccccc5c4)nc3c2)c1` under?
bucket A

Which bin should I file `Cc1oc(CC(C)C)cc1C(N)=O` under?
bucket C

Which bin should I file COc1cc(C(c2nnnn2C2CCCCC2)N2CCc3ccccc3C2)ccc1O (stereo unspecified) under?
bucket B

Which bin should I file `COc1ccc(C(=O)Oc2c(Sc3ccc(C)cc3)c(C)nn2C(C)(C)C)c(OC)c1` under?
bucket A

Which bin should I file Cc1cccc(NC(c2cccc(Cl)c2)c2ccc3cccnc3c2O)n1 (stereo unspecified) under?
bucket A

Which bin should I file `COc1ccc(CCNC(=O)CSc2ncc3c(n2)-c2cc(Cl)ccc2N(Cc2ccccc2)S3(=O)=O)cc1OC` under?
bucket B

Which bin should I file `COc1ccc(C(=O)Oc2c(Sc3ccc(C)cc3)c(C)nn2C(C)(C)C)cc1OC` under?
bucket C
